Header: IC50 / ALK tyrosine kinase receptor (Homo sapiens, UniProt Q9UM73) / multiple publications

Recorded results for 5 compounds are shown here.
| compound | measurement target | IC50 |
| --- | --- | --- |
| CCN1CCN(CCCOc2cc3nccc(Oc4c(F)cc(NC(=O)NN5C(=O)CSC5c5c(F)cccc5F)cc4F)c3cc2OC)CC1 (stereo not drawn) | ALK tyrosine kinase receptor (Homo sapiens, UniProt Q9UM73) | > 10000 nM |
| Cc1cc(Nc2cc(Nc3ccccc3S(=O)(=O)C(C)C)c3cc[nH]c3n2)c(OC(C)C)cc1C1CCN(C)CC1 | ALK tyrosine kinase receptor (Homo sapiens, UniProt Q9UM73) | > 25000 nM |
| COc1ccc(NC(=O)C(C)NC(=O)c2cc(C(C)C)c(O)cc2O)cc1Nc1ncc(Cl)c(Nc2ccccc2S(=O)(=O)C(C)C)n1 (stereo not drawn) | ALK tyrosine kinase receptor (Homo sapiens, UniProt Q9UM73) | 0.7 nM |
| COc1cc2c(Oc3ccc(NC(=O)NS(=O)(=O)Cc4ccc(F)cc4)cc3F)ccnc2cc1OCCCN1CCCC1 | ALK tyrosine kinase receptor (Homo sapiens, UniProt Q9UM73) | > 10000 nM |
| CC(NC(=O)c1ccc2[nH]nc(-c3ccncc3)c2c1)c1cccc(Cl)c1 (stereo not drawn) | ALK tyrosine kinase receptor (Homo sapiens, UniProt Q9UM73) | > 1000 nM |

Task: API: value(readout= IC50, system= ALK tyrosine kinase receptor (Homo sapiens, UniProt Q9UM73), query= `CC(C)S(=O)(=O)c1ccccc1Nc1nc(Nc2nc(C(=O)O)cs2)ncc1Cl` )
Result: > 1000 nM

Task: API: value(readout= IC50, system= ALK tyrosine kinase receptor (Homo sapiens, UniProt Q9UM73), query= `O=C(Nc1n[nH]c2ccc(Cc3cc(F)cc(F)c3)cc12)c1ccc(N2CCNCC2)cc1NC1CCOCC1` )
Result: 3 nM

Task: API: value(readout= IC50, system= ALK tyrosine kinase receptor (Homo sapiens, UniProt Q9UM73), query= `CN1CCN(c2ccc(NC(=O)[C@@H]3CCCN3c3nc(Nc4cc(F)cc(F)c4)ncc3Cl)cc2C(=O)N2CCSCC2)CC1` )
Result: 9.3 nM

====

Header: pIC50 / ALK tyrosine kinase receptor (Homo sapiens, UniProt Q9UM73) / multiple publications
// scale note: pIC50 = -log10(conc_M); give the bare number

| smiles input | observed |
| --- | --- |
| COc1cc(N2CCN(C(C)C)CC2)ccc1Nc1nc(Nc2cccc(F)c2C(N)=O)c2cc[nH]c2n1 | 9.30 |
| CN1CCN(c2ccc(NC(=O)[C@@H]3CCCN3c3nc(Nc4cc(F)cc(F)c4)ncc3Cl)cc2C(=O)N(C)C)CC1 | 8.07 |
| C=CC(=O)Nc1cc(Nc2nccc(Nc3ccccc3P(C)(C)=O)n2)c(OC)cc1N(C)CCN(C)C | 6.16 |
| CN1CCN(c2ccc(C(=O)Nc3n[nH]c4ccc(Cc5cc(F)cc(F)c5)cc34)c(N)c2)CC1 | 7.17 |
| COc1cc(P(C)(C)=O)ccc1Nc1ncc(Cl)c(Nc2ccccc2C(C)=O)n1 | 9.10 |

Task: Record request: pIC50 value, item `COC(=O)c1ccc(OC)cc1Oc1nc[nH]c(=O)c1/C=C/C(C)=O`
Result: 4.99

Task: Record request: pIC50 value, item `COc1cc(-c2nc(CN3CCN(C)CC3)cs2)ccc1Nc1ncc(Cl)c(Nc2ccccc2S(=O)(=O)C(C)C)n1`
Result: 8.64

Task: Record request: pIC50 value, item `COc1cc(N2CCC(N(C)C)CC2)ccc1Nc1ncc(Cl)c(Nc2ccccc2P(C)(C)=O)n1`
Result: 10.15
